# system: spinach Rubisco (Spinacia oleracea, UniProt P00875)
pKd: −log10 of the molar value.
observation_type: pKd

[[record]]
compound = "O=C(COP(=O)(O)O)[C@H](O)[C@H](O)COP(=O)(O)O [RuBP, ribulose-1,5-bisphosphate]"
observation_type = "pKd"
reported_measurement = 4.50

